System: CT-DNA
method: DNA binding by UV-vis absorption titration
run.conditions: pH 7.4, 25 °C
measurement.label: Kb, BH-II (Benesi–Hildebrand method II) (M⁻¹)
Give your result in M⁻¹ as a bare value.

[Co+2].[O-]c1ccccc1N=Cc1ccc(N2CCOCC2)cc1.[O-]c1ccccc1N=Cc1ccc(N2CCOCC2)cc1.c1ccc(-c2ccccn2)nc1
21524
Oc1ccccc1N=Cc1ccc(N2CCOCC2)cc1
19515
[Ni+2].[O-]c1ccccc1N=Cc1ccc(N2CCOCC2)cc1.[O-]c1ccccc1N=Cc1ccc(N2CCOCC2)cc1.c1ccc(-c2ccccn2)nc1
20938

stdin: Record request: Kb, BH-II (Benesi–Hildebrand method II) value, item [Mn+2].[O-]c1ccccc1N=Cc1ccc(N2CCOCC2)cc1.[O-]c1ccccc1N=Cc1ccc(N2CCOCC2)cc1.c1ccc(-c2ccccn2)nc1
stdout: 21067
